// values below are reported TGI
test system: TK-10 renal; assay: NCI tumour cell line growth inhibition, 48 h

COc1ccc(/C(CC2OC(=O)c3ccccc32)=N\NC(N)=O)cc1 (centres undefined) ... > 100 µM

Lookup: // lookup TGI for COc1cc2c(cc1OCCCOc1ccc(-c3cc4ccccc4c4ccccc34)cc1)N=C[C@@H]1CCCN1C2=O
Found: 1.79 µM

Lookup: Recorded TGI for O=C(NCc1ccccc1Cl)c1c(O)c2ccccc2[nH]c1=O , please?
Found: > 100 µM

----------
system: LOX IMVI melanoma; experiment: NCI tumour cell line growth inhibition, 48 h
Parameter: TGI. Scope: all listed entries.

Lookup: # TGI lookup, item O=C(OC[C@@H]1CO1)c1cccc2c(=O)c3ccccc3[nH]c12
Found: 0.48 µM

Lookup: What value of TGI has been recorded for this entry: CN(C)C(=O)Oc1ccc(C(=S)Nc2ccccc2)cc1
Found: > 100 µM

Lookup: Look up TGI for this molecule: COc1cccc(C2C(C#N)=C(N)Oc3cc4c(cc32)OCO4)c1 (centres undefined)
Found: 17.2 µM

Lookup: Need TGI of COc1ccc(CC[N+]2(C)COc3cc4oc(=O)cc(C)c4cc3C2)cc1OC (centres undefined) , thanks.
Found: > 100 µM

Lookup: Consider the molecule shown here: COCC1N=C(c2cc(OC)c(OC)c(OC)c2-c2cc3c(cc2[C@H](C)O)OCO3)O[C@H]1c1ccccc1 (some centres undefined) What is its recorded TGI?
Found: > 100 µM

Lookup: Report TGI for O=c1[nH]c2ccc([N+](=O)[O-])c(Cl)c2c2ccccc12 please.
Found: > 100 µM

----------
# maps each entry to its TGI
test system: COLO 205 colon; experiment: NCI tumour cell line growth inhibition, 48 h

// solved cases for TGI follow
CCCCCCCCCCCCC1N=C(N)NC2(CCCO2)C1C(=O)OC (stereo unspecified) ... 10.9 µM
N#Cc1c(N)nc(Sc2ccccc2N)c(C#N)c1-c1ccccc1 ... > 100 µM
CCC(=C/[C@H](C)C/C=C/C(C)=C/[C@@H](C)C(=O)[C@@H](C)[C@H](O)[C@@H](C)CC)/C=C/[C@H]1CC=CC(=O)O1 ... 0.0428 µM
Cc1cc(C)n2c(nc3ccccc32)c1C#N ... > 100 µM
Cc1ccc2nc(C(=O)O)c(=O)[nH]c2c1 ... > 100 µM
CC1=C2[C@@H](CC1)[C@]1(C)O[C@@](C3CC3)(C[C@H]1OC(=O)CO)[C@H]2OC(=O)/C=C/c1ccccc1 ... 35.7 µM
CCCCCCCc1ccc(-c2nnc(N=Nc3ccc(OCCCCC)cc3)s2)s1 ... > 100 µM
COc1ccc(C23OCC(Cc4cc(OC)c(OC)cc42)C3CO)cc1OC (stereo unspecified) ... > 100 µM
COc1cc(/C=C\c2cc(OC)c(OC)c(OC)c2)cc(NS(=O)(=O)c2ccc(Cl)cc2)c1OC ... 0.652 µM
Cc1ccc(C2=C(Cl)C(=O)C(c3ccc(C)cc3)=C(Cl)C2=O)cc1 ... > 100 µM

Lookup: Query the reported TGI for COLO 205 colon; item: CC(C)=CC(=O)c1c(C(=O)O)nc2ccccc2[n+]1[O-]
Found: > 100 µM

----------
tested on: HT29 colon; assay: NCI tumour cell line growth inhibition, 48 h
Each item that follows carries a reported TGI.

Worked cases, answers included:
CCN(CC)CCNc1ccc([N+](=O)[O-])c2sc3cc(Cl)ccc3c(=O)c12 ... > 100 µM
CC(C)(CN1CCCCC1)C(=O)CC(SCCS(=O)(=O)O)c1ccc(Cl)cc1 (centres undefined) ... 12.6 µM
CC(=O)[C@]1(O)Cc2c(O)c3c(c(O)c2[C@@H](OC2CC(N)C(O)C(C)O2)C1)C(=O)c1c(OCc2ccccc2)cccc1C3=O (some centres undefined) ... 14.7 µM

Lookup: Form field: reported TGI of COC(=O)CC1CC2(C(=O)OC)c3[nH]c4ccccc4c3CCN2C1=O (centres undefined)
Found: > 100 µM

Lookup: Param item = CC1=CCN(c2ccccn2)OC1c1ccccc1 (centres undefined) ; retrieve measured TGI.
Found: > 100 µM

Lookup: Dear colleague, I am looking for the recorded TGI of the following compound: COc1cc(N(CCC#N)CCC#N)ccc1/C(N=Nc1ccc(C(=O)O)cc1)=N/NC(=O)c1cc(Br)ccc1O
Found: > 150 µg/mL

Lookup: Which TGI value belongs to c1cc2c(cc1[C@@H]1OC[C@@H]3[C@H]1CO[C@H]3c1ccc3c(c1)OCO3)OCO2 ?
Found: > 100 µM

Lookup: Query (compound): CC(C)=CCC/C(C)=C/C=C/C(C)=C/C1C[C@@]2(C(O)O1)[C@H](CCCO)/C(=C(/C)C=O)CC[C@]2(C)O (some centres undefined) ; field requested: TGI
Found: 33.3 µM

Lookup: // returns reported TGI for input CSc1nc[nH]c1C(N)=S
Found: > 100 µM

----------
system: HT29 colon; assay: NCI tumour cell line growth inhibition, 48 h; in the data active = GI50 below about 0.43 µM; inactive = the rest
Tick one outcome: active, inactive

Solved entries:
CCN(CC)CCOc1ccc2c(C)c(C(=O)OC)oc2c1C(=O)/C=C/c1ccc(OC)cc1 ... inactive
COC(=O)[C@H](Cc1cn(C)cn1)NC(=O)[C@@H](NC(=O)Nc1cc(C(F)(F)F)cc(C(F)(F)F)c1)C(C)C ... inactive
O=C(OC[C@@H]1CO1)c1cccc2c(=O)c3ccccc3[nH]c12 ... active
N#CC(NC(=O)CCl)=C(Cl)Cl ... inactive
NC(=O)c1ncn(C2OC(CO)C(O)C2O)c1N (stereo not given) ... inactive
CC1(C)CC[C@]2(C(=O)O)CC[C@]3(C)C(=CC[C@@H]4[C@@]5(C)C/C(=C/c6ccco6)C(=O)C(C)(C)[C@@H]5CC[C@]43C)[C@@H]2C1 ... inactive

Lookup: Hey, what did the test say about OCC#Cc1ccccc1C#Cc1ccc(C#Cc2ccccc2)cc1 ?
Found: inactive

----------
system: HL-60(TB) leukemia; assay: NCI tumour cell line growth inhibition, 48 h
Metric name: GI50

Some molecules with recorded GI50:
CCN(CC)CCOc1ccc2c(C)c(C(=O)OC)oc2c1C(=O)/C=C/c1ccc(OC)cc1 ... 1.94 µM
COc1ccc(/C=C/C(C)=N/OCC(=O)Nc2ccc(Cl)cc2)cc1 ... 2.55 µM
CNCc1ccc(-c2[nH]c3cc(F)cc4c3c2CCNC4=O)cc1 ... 20.9 µM

Kindly consider the entry below.
Lookup: Bench note: what GI50 did COC(=O)[C@]1(C)CCC[C@]2(C)[C@@H]1CCC13C[C@@H](C=CO1)[C@@H](C)CC32O (some centres undefined) show?
Found: 45.4 µM

----------
tested on: MOLT-4 leukemia; assay: NCI tumour cell line growth inhibition, 48 h
Metric name: TGI

Cn1c(NC(=O)NC23CC4CC(CC(C4)C2)C3)nc2ccccc21 ... > 100 µM

Lookup: # query: TGI of entry O=C1C=C/C(=C/[C@H]2SSC=C[C@]23C=CC(=O)C3)C1
Found: 7.16 µM

Lookup: Looking for the measured TGI of CCCCCCCCCCCCCCCC(=O)OCC1OC(n2cc(F)c(=O)[nH]c2=O)C(NC(=O)N(CCCl)N=O)C(O)C1O (stereo not given) , can you help?
Found: > 39.9 µM

----------
tested on: ACHN renal; experiment: NCI tumour cell line growth inhibition, 48 h; in the data active = GI50 below about 0.43 µM; inactive = the rest
Tick one outcome: 1.0 = active, 0.0 = inactive

Lookup: Dear all, I need the recorded test outcome for OCCCCC#Cc1ccccc1C#Cc1ccc(C(F)(F)F)cc1 , thank you.
Found: 0.0

----------
test system: UO-31 renal; assay: NCI tumour cell line growth inhibition, 48 h; in the data active = GI50 below about 0.43 µM; inactive = the rest
A correct response names exactly one class from Yes (active), No (inactive)

Below are worked cases with known answers.
CC1=C2[C@@H](CC1)[C@]1(C)O[C@@](C3CC3)(C[C@H]1OC(=O)CO)[C@H]2OC(=O)/C=C/c1ccccc1 ... No
O=C1CCS/C(=N/S(=O)(=O)c2ccc(N3N=C4c5ccccc5CC4C3c3cccs3)cc2)N1Cc1ccccc1 (centres undefined) ... No
Fc1ccc(-c2nn3c(COc4ccc(Cl)cc4)nnc3s2)cc1Oc1ccccc1 ... No

Lookup: Which outcome was entered for the compound OCC#Cc1ccccc1C#Cc1ccc(C#Cc2ccccc2)cc1 in this test?
Found: No

Lookup: What classification did C=CCN=C(N/N=C/c1ccc([N+](=O)[O-])o1)NS(=O)(=O)c1cc(C(=O)Nc2ccccc2)c(Cl)cc1SCC(N)=O end up with in this test?
Found: No

Lookup: What was the test verdict on O=C(N/N=C/c1ccc(F)cc1)c1ccc(C(F)(F)F)nc1Nc1cccc(C(F)(F)F)c1 ?
Found: No

Lookup: Identify the outcome logged in this assay for the compound shown: N#CC(NC(=O)CCl)=C(Cl)Cl
Found: No

----------
Overview of recorded GI50 for various compounds
test system: COLO 205 colon; assay: NCI tumour cell line growth inhibition, 48 h

Examples from the recorded data:
COc1cc(/C=C2\C(=O)N(C)c3ccccc32)cc(OC)c1OC ... 17.7 µM
O=C(N/N=C/c1ccc(F)cc1)c1ccc(C(F)(F)F)nc1Nc1cccc(C(F)(F)F)c1 ... 1.56 µM
COC(=O)[C@]1(C)CCC[C@]2(C)[C@@H]1CCC13C[C@@H](C=CO1)[C@@H](C)CC32O (stereo not given in full) ... 64.4 µM
CCN1CCN(c2nc(NNC(=O)c3ccccc3)nc(N3CCN(C(c4ccccc4)c4ccccc4)CC3)n2)CC1 ... 1.9 µM

Proceed to the following item.
Lookup: Which value of GI50 has been reported for NC(N)=N/N=C/c1c(-c2ccncc2)nc2sc(Cl)cn12 in the records?
Found: 4.21 µM
